- study target: NEK7 (Homo sapiens (Human))
- Sequence (Q8TDX7 whole entry): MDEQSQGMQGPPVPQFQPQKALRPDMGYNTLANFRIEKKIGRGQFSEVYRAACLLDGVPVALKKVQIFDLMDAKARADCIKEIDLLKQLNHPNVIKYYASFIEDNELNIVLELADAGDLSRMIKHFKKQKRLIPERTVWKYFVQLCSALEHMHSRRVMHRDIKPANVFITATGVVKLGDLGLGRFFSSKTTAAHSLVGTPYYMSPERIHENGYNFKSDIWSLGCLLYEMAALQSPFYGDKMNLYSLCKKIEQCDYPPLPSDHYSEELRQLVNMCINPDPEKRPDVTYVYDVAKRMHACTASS
- assay details: KiNativ assay
- Type: binding
- details: H929 live cell, read-out: inhibition (10 μM)
property: inhibition at 10 µM (%)

Nc1ncc(-c2cccc3ncsc23)cc1-c1ccc2c(c1)CCNC2=O -20.2
CN(C1CC1)S(=O)(=O)c1ccc(-c2cnc(N)c(-c3ccc4c(c3)CCNC4=O)c2)c(F)c1 16
Nc1ncc(-c2ccc(NS(=O)(=O)C3CC3)cc2F)cc1-c1ccc2c(c1)CCNC2=O -50.3
Nc1ncc(-c2cccc([N+](=O)[O-])c2F)cc1-c1ccc2c(c1)CCNC2=O -39.5
Nc1ncc(-c2ccc(NS(=O)(=O)C3CC3)cc2OC2CCCCC2)cc1-c1ccc2c(c1)CCNC2=O -80
COc1cc(NS(=O)(=O)C2CC2)ccc1-c1cnc(N)c(-c2ccc3c(c2)CCNC3=O)c1 -18.9
